B1: LINE1-full (parent)
chain: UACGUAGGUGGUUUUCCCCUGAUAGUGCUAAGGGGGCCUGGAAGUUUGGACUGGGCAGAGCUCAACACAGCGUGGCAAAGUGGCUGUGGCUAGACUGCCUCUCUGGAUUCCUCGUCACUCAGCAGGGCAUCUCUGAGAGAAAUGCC

Variants of: B1
Assay: self-cleavage, relative activity (ratio to wild type); higher = more cleavage; in vitro, sequencing; the parent is a self-cleaving ribozyme
Entry class follows self-cleavage: group 1: < 0.4; group 2: ≥ 0.4 and < 1; group 3: ≥ 1

{"columns": ["mutantId", "label"],
 "data": [
  ["G93U A141U", "group 1"],
  ["U15A G80A", "group 3"],
  ["G35U U100A", "group 2"],
  ["U112C U143G", "group 3"],
  ["A65G C131G", "group 1"],
  ["U62A A140G", "group 1"],
  ["C19U U102C", "group 2"],
  ["A6G U85G", "group 1"],
  ["U26A U85C", "group 1"],
  ["G34A U47C", "group 3"],
  ["U102A U109C", "group 3"],
  ["U87C A124U", "group 1"],
  ["U29A A64G", "group 2"],
  ["A30G U102C", "group 3"],
  ["A77U A107G", "group 3"],
  ["A22G C63A", "group 1"],
  ["A24U A117G", "group 2"],
  ["U12G G35A", "group 2"],
  ["U29C U52C", "group 3"],
  ["A31G U39G", "group 3"],
  ["U9C A67G", "group 2"],
  ["A78G A92G", "group 1"],
  ["A6G U20G", "group 3"],
  ["U81C G127U", "group 3"],
  ["U15A A43U", "group 2"],
  ["G75A G105U", "group 2"],
  ["A64G G72A", "group 1"],
  ["U9A C51A", "group 3"],
  ["A77C A136G", "group 3"],
  ["A77U U100A", "group 2"],
  ["U96C C113G", "group 1"],
  ["G35C U62C", "group 1"],
  ["A59U C123U", "group 2"],
  ["G53U U134A", "group 2"],
  ["A31U U96C", "group 1"],
  ["A59G G126U", "group 1"],
  ["A24U A140G", "group 3"],
  ["C17U U132C", "group 2"],
  ["A24G G122C", "group 3"],
  ["C18A U73C", "group 3"],
  ["C68U U81C", "group 1"],
  ["G4A U13C", "group 3"],
  ["G34A U143G", "group 3"],
  ["A30G A69U", "group 1"],
  ["A31U C146A", "group 2"],
  ["U20A C63U", "group 2"],
  ["G60U A138G", "group 1"],
  ["A24U U87C", "group 1"],
  ["U100A C146G", "group 3"],
  ["G36A U115A", "group 3"],
  ["U46A G75U", "group 2"],
  ["U26C U119C", "group 3"],
  ["U45C A141U", "group 3"],
  ["U96A C113U", "group 1"],
  ["A50G C66U", "group 1"],
  ["C98U A136G", "group 2"],
  ["U46C A50U", "group 3"],
  ["U14C U104C", "group 3"],
  ["A79G A107U", "group 3"],
  ["U9A A42C", "group 2"],
  ["G89A A142G", "group 1"],
  ["U15C C133A", "group 3"],
  ["C3U U143C", "group 2"],
  ["U20A C51A", "group 2"],
  ["A59U A107G", "group 3"],
  ["U62A A121G", "group 1"],
  ["C101G", "group 3"],
  ["U14C G105U", "group 3"],
  ["A77G G82A", "group 2"],
  ["U9C U112A", "group 3"],
  ["U9A A117G", "group 2"],
  ["G83U U85A", "group 1"],
  ["A30C A107G", "group 3"],
  ["A57G A67U", "group 1"],
  ["A94C U130C", "group 1"],
  ["U26A U39C", "group 2"],
  ["C68A A69G", "group 1"],
  ["A57G C84U", "group 1"],
  ["G97A A140G", "group 1"],
  ["A42U G55U", "group 1"],
  ["A64U G122A", "group 2"],
  ["U45G A136G", "group 2"],
  ["A42U U104C", "group 3"],
  ["A6U U62A", "group 1"],
  ["A43G A117C", "group 3"],
  ["U73C C98A", "group 1"]
]}
